Tested on: CCRF-CEM leukemia
assay-info: NCI tumour cell line growth inhibition, 48 h
parameter: TGI

// worked examples, TGI included
compound: COC(=O)c1ccccc1CC1Cc2cc3c(cc2C1)CCC3
TGI: 39.1 µM
--
compound: CCCCNc1nc(SC)nc2nc[nH]c12
TGI: > 100 µM
--
compound: CC(=O)Nc1ccc(/C=c2\sc3nnc(/C=C/c4ccccc4)n3c2=O)cc1
TGI: > 50 µM

Give measured TGI for every item shown.
1. C/C=C(/C)C(=O)OC1C=C(CO)C(=O)C(OC(=O)/C(C)=C\C)C1C(C)C (centres undefined)
2. COc1ccc(C2=C(OC(C)=O)c3cccn3-c3ccccc3S2)cc1
3. OC[C@H]1CC(c2nn[nH]n2)[C@H](O)[C@@H]1O (some centres undefined)
4. Cn1cc(-c2ccc(CCOC3CCCCO3)cc2)c2c(C#N)cccc21 (centres undefined)
5. O=C1C(Nc2ccccn2)=C(I)C(=O)c2ncccc21
6. COC(=O)[C@]1(c2cc3ccccc3n2S(=O)(=O)c2ccccc2)CC2CCC1NC2 (some centres undefined)

["4.19 µM", "> 10 µM", "> 100 µM", "> 100 µM", "5.19 µM", "56.8 µM"]

Give measured TGI for every item shown.
1. CC(C)C1OCC(CO)CO1 (centres undefined)
2. CNC(=O)N(CCC#N)CCN(CCN(C(=O)NC)c1ccccc1)C(=O)NC
3. COC(=O)[C@]1(c2cc3ccccc3[nH]2)CC2CN(CC(=O)N(C)OC)C1C1OC(C)(C)OC21 (some centres undefined)
4. COc1ccc2[nH]cc(/C=C3\C(=O)Nc4ccccc43)c2c1
5. O=C(Nc1ccc(-n2cc(-c3ccncc3)c(-c3ccc(Cl)c(O)c3)n2)cc1)c1cc(Cl)cc(Cl)c1

1: > 100 µM; 2: > 100 µM; 3: > 100 µM; 4: 18.8 µM; 5: > 100 µM

Give measured TGI for every item shown.
1. COc1ccc(-c2nc3ccc(C)cc3o2)c(OC)c1
2. CSC(=S)NN=C1CCCCC1
3. C=C(C)C1CC[C@]2(C(=O)O)CCC3(C)[C@H](CCC4[C@@]5(C)CC[C@H](OC6OC(CO)C(O)C6OC6OC(C)C(O)C(O)C6O)[C@@](C)(CO)C5CC[C@]43C)C12 (some centres undefined)
4. CCOC(=O)c1sc2nc(SC)nc(Nc3ccc(OC)c(OC)c3)c2c1N
5. CCN(CC)CC(C)(C)C(=O)/C=C/c1ccc(C)cc1
6. Cc1ccc(C2SC(N)=Nc3c2c(C)nn3C(=O)c2ccncc2)cc1 (centres undefined)
7. Cc1ccc(N2C(=O)/C(=c3\s/c(=C(/N)O)c(=N)n3-c3ccccc3)SC2=S)cc1

1. 65.8 µM
2. 87.8 µM
3. > 100 µM
4. > 100 µM
5. 19.2 µM
6. > 10 µM
7. > 100 µM

====

Assignment: determine reported TGI for the given compounds.
System: PC-3 prostate
assay-info: NCI tumour cell line growth inhibition, 48 h
Answers are plain numbers, in µM.

// worked examples, TGI included
mol: O=C1C(Nc2ccccn2)=C(I)C(=O)c2ncccc21
unit-label: µM
test-result: 5.12
//
mol: O=C1/C(=C\c2ccccc2)c2ccccc2N1Cc1ccccc1
unit-label: µM
test-result: 15.9

Attention now turns to another entry.
Which TGI value belongs to COc1cc(/C=C2\C(=O)N(c3c(Cl)cccc3Cl)c3ccccc32)cc(OC)c1O ?
27.1

====

Test system: BT-549 breast
assay-info: NCI tumour cell line growth inhibition, 48 h
Assignment: determine reported TGI for the given molecules.
Answers are plain numbers, in µM.

// worked examples, TGI included
molecule: CC1=COC2=C(C)C(=O)C(=O)c3c(C)ccc1c32
measured-on: BT-549 breast
test-result: 38.3
//
molecule: COC(=O)C1=NN2c3ccccc3CN([C@@H](C)c3ccccc3)C(=O)[C@@H]2C1
measured-on: BT-549 breast
test-result: 64.9
//
molecule: CC(=O)OC1CC(OC2C(O)CC(OC3C(O)CC(OC4CCC5(C)C(CCC6C5CC(O)C5(C)C(C7=CC(=O)OC7)CCC65O)C4)OC3C)OC2C)OC(C)C1O (stereo not drawn) (tested in a mixture with another compound)
measured-on: BT-549 breast
test-result: 0.201

Give measured TGI for every item shown.
1. CO[C@H](/C(C)=C/C=C/C(C)=C/c1coc(C)n1)[C@H](C)[C@H]1C[C@@H](O)[C@@]2(C)O[C@H]2/C=C/[C@@H](C)[C@@H]2C[C@@H](CC(=O)O2)C[C@H]2O[C@@H]2C(=O)O1
2. N#Cc1ccc(-n2cnc(NC(=O)[C@H]3CCN(C#N)C3)c2)cc1
3. COC(=O)/C(=C/N1CCN(C(=O)c2ccco2)C1=S)C(C)=O
4. Nc1nc(Cl)c2ncn(Cc3ccccc3CCl)c2n1
5. O=C1c2cccc3c(N4CCN(c5ccc6c7c(cccc57)C(=O)N(CCN5CCNCC5)C6=O)CC4)ccc(c23)C(=O)N1CCN1CCNCC1
6. O=C1/C(=C\c2ccccc2)c2ccccc2N1Cc1ccccc1
7. O=C(c1cccs1)c1c(C(F)(F)F)n([O-])c2cc(F)c(F)cc2[n+]1=O

1. 2.81
2. 2.47
3. 9.03
4. 22.9
5. 39.3
6. 14.2
7. 3.24

Give measured TGI for every item shown.
1. CCCCc1ccc(Nc2nc(Cl)c3[nH]cnc3n2)cc1
2. CN(C)CCCC1(c2ccc(F)cc2)OCc2cc(-c3ccc4cc[nH]c4c3)ccc21 (stereo not drawn)
3. O=[N+]([O-])c1ccc(N(CCO)CCO)c2c1no[n+]2[O-]
4. COc1ccc2cc(C(=O)/C=C/c3ccc(OC)c(OC)c3)ccc2c1
5. CN1c2ccccc2C2c3c(O)ccc(O)c3C=C([N+](=O)[O-])C21 (stereo not drawn)

65.4
7.62
4
68.7
13.6

Give measured TGI for every item shown.
1. O=C(NCCNCCO)c1ccc2oc3cc4ccccc4c(=O)n3c2c1
2. Clc1ccc2c(NCCNc3nc(-c4ccccc4)cc(-c4ccccc4)n3)ccnc2c1
3. C#C[C@]1(O)CC[C@H]2[C@@H]3CC=C4c5nc(Nc6ccc(OC)cc6OC)sc5CC[C@]4(C)[C@H]3CC[C@@]21C

1: 24.1; 2: 3.2; 3: 4.77

Give measured TGI for every item shown.
1. Nc1cc(C(F)F)c(-c2nc(N3[C@@H]4CC[C@H]3COC4)nc(N3[C@@H]4CC[C@H]3COC4)n2)cn1
2. O=C1C(Nc2ccccn2)=C(I)C(=O)c2ncccc21

2.77
3.14

====

Assignment: determine reported TGI for the given compounds.
Tested on: SNB-78 CNS
assay-info: NCI tumour cell line growth inhibition, 48 h

compound: CC(C)(C)C1CCC2c3c([nH]c4ccccc34)C3C(=O)N(c4ccc(Br)cc4)C(=O)C3C2C1 (stereo not drawn)
measured-on: SNB-78 CNS
TGI: > 100 µM

compound: C/C=C/C=C/[C@H]1Cc2cc(O)cc(O)c2O1
measured-on: SNB-78 CNS
TGI: > 100 µM

Attention now turns to another entry.
Which TGI value belongs to CC1=CCC2(C#N)CCC1C2=O (stereo not drawn) ?
> 100 µM

====

Tested on: SK-MEL-28 melanoma
assay-info: NCI tumour cell line growth inhibition, 48 h; in the data active = GI50 below about 0.43 µM; inactive = the rest
Where a SMILES comes first, the peptide text is derived from it. [ ]: non-standard residue; d: D form. 2Nal = N[CH](Cc1ccc2ccccc2c1)C(=O)O
Returns: one label drawn from active, inactive

Some solved cases for reference:
compound: N#Cc1cccc(Nc2nccc(-c3cnn4ncccc34)n2)c1
class-name: active
--
compound: CC(NC(=O)C(N)Cc1ccccc1)C(=O)NC(Cc1ccc(O)cc1)C(=O)NC(Cc1c[nH]c2ccccc12)C(=O)NC(CCCCN)C(=O)NC(C(=O)NC(C)C(=O)NC(Cc1ccc2ccccc2c1)C(N)=O)C(C)C (centres undefined) (H-FAYWKVA[2Nal]-NH2; configuration not given here)
class-name: inactive
--
compound: O=C(Oc1ccc([N+](=O)[O-])cc1)N1CCC(C(O)(c2ccc3c(c2)OCO3)c2ccc3c(c2)OCO3)CC1
class-name: inactive

Record request — test call for O=[N+]([O-])c1ccc2nc(N/N=C/c3ccc(O)cc3)sc2c1
inactive

====

System: HT29 colon
assay-info: NCI tumour cell line growth inhibition, 48 h
Assignment: determine reported TGI for the given compounds.
Answers are plain numbers, in µM.

compound: CC(C)(C)C1CCC2c3c([nH]c4ccccc34)C3C(=O)N(c4ccc(Br)cc4)C(=O)C3C2C1 (stereo not given)
TGI [µM]: 44.3
//
compound: Cc1oc2c(c1C(=O)c1ccccc1)C(=O)c1ccccc1C2=O
TGI [µM]: 39.6
//
compound: CCOC(=O)C(=Cc1ccc(Br)cc1)C(=O)OCC
TGI [µM]: 5.86
//
compound: O=C1/C(=C\c2ccccc2)c2ccccc2N1Cc1ccccc1
TGI [µM]: 14.4
//
compound: Nc1nc(Cl)c2ncn(Cc3ccccc3CCl)c2n1
TGI [µM]: 18.9

Give measured TGI for every item shown.
1. COc1ccc2cc(C(=O)/C=C/c3ccc(OC)c(OC)c3)ccc2c1
2. COc1cc(Cn2c3c(c4cc(O)ccc42)C(=O)c2ccccc2C3=O)cc(OC)c1
3. CS(=O)(=O)c1ccc(C(F)(F)F)cc1NC(=O)Nc1cnc(Oc2ccc(-c3cc(Cl)cnc3N)cc2)nc1
4. N#Cc1ccc(-n2cnc(NC(=O)[C@H]3CCN(C#N)C3)c2)cc1
5. CC1=COC2=C(C)C(=O)C(=O)c3c(C)ccc1c32

[76.4, 16.2, 7.52, 7.3, 12.8]

Give measured TGI for every item shown.
1. Cc1ccc(NC2=C(Cl)C(=O)c3nc(C)ccc3C2=O)cc1
2. CN1c2ccccc2C2c3c(O)ccc(O)c3C=C([N+](=O)[O-])C21 (stereo not given)
3. O=C1C(Nc2ccccn2)=C(I)C(=O)c2ncccc21

1. 8.46
2. 0.568
3. 8.48
